- STUDY SYSTEM: human TRPV1 (Homo sapiens, UniProt Q8NER1)
- Construct: expressed in transfected cells
- Sequence (Q8NER1 whole entry): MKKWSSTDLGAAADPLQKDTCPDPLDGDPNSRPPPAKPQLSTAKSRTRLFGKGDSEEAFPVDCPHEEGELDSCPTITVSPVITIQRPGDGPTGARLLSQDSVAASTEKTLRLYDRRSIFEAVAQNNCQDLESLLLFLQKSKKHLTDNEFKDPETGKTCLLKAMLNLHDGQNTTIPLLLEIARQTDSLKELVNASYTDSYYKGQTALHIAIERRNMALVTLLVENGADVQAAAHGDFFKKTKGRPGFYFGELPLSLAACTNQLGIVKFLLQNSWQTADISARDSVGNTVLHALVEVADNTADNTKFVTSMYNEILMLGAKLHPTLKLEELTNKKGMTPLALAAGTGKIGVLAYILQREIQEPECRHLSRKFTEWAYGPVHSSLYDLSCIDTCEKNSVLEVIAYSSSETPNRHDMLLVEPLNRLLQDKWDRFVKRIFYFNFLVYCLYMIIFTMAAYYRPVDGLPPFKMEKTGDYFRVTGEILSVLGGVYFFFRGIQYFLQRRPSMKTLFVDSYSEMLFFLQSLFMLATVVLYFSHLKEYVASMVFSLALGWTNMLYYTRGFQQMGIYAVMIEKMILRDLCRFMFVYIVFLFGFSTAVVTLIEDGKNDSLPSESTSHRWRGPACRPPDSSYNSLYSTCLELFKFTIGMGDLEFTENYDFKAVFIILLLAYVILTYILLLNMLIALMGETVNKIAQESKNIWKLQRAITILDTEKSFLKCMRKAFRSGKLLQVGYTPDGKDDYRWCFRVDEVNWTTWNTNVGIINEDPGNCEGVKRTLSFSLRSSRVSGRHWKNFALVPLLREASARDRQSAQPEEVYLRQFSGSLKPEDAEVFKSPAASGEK
- TEST DESCRIPTION: Capsaicin Activation Assay (FLIPR intracellular Ca2+, recombinant HEK293 cells)
- Format: cell-based
- CONDITION NOTES: recombinant HEK293 cells expressing hTRPV1; 50 nM capsaicin; read-out: human TRPV1 capsaicin IC50
Give measured pIC50 for each item. Keep answers brief.
Keep in mind that pIC50 stands for -log10 of concentration in molar terms.

// Input: CCC1(CC)C[C@@H](NC(=O)Nc2cccc3c2C[C@H](O)C3)c2ccc(OC(F)(F)F)cc2O1 . Output its pIC50 only. 7.28

// Input: O=C(Nc1cccc2c1C[C@H](O)C2)N[C@@H]1CC2(CCC2)Oc2ccccc21 . Output its pIC50 only. 7.11

// Input: COc1ccc2c(c1)OCCC2NC(=O)Nc1cccc2c1CC(O)C2 (stereo not shown) . Output its pIC50 only. 5.66

// Input: O=C(Nc1ccc(F)c2c1C[C@H](O)C2)N[C@@H]1CCOc2cc(OC(F)(F)F)ccc21 . Output its pIC50 only. 5.80

// Input: O=C(Nc1cccc2c1C[C@@H](O)C2)N[C@H]1CC(CF)(CF)Oc2cc(Cl)ccc21 . Output its pIC50 only. 6.30

// Input: CCC1(CC)C[C@@H](NC(=O)Nc2cccc3c2C[C@H](O)C3)c2ccc(C(F)(F)F)cc2O1 . Output its pIC50 only. 7.29

// Input: O=C(Nc1ccc(F)c2c1C[C@@H](O)C2)N[C@@H]1CC(CF)(CF)Oc2ccc(F)cc21 . Output its pIC50 only. 5.41

// Input: CCC1(CC)C[C@@H](NC(=O)Nc2cccc3c2C[C@H](O)C3)c2cccc(F)c2O1 . Output its pIC50 only. 7.62

// Input: O=C(Nc1cccc2c1CC(O)C2)NC1CC(c2ccccc2Cl)Oc2ccccc21 (stereo not shown) . Output its pIC50 only. 5.80

// Input: O=C(Nc1cccc2c1C[C@H](O)C2)N[C@@H]1CCc2c1cccc2C(F)(F)F . Output its pIC50 only. 7.89

// Input: O=C(Nc1c(F)ccc2c1C[C@H](O)C2)N[C@@H]1CC(CF)(CF)Oc2cc(Cl)ccc21 . Output its pIC50 only. 6.33

// Input: O=C(Nc1cccc2c1CC(O)C2)NC1CC(c2ccc(F)cc2)Oc2ccccc21 (stereo not shown) . Output its pIC50 only. 6.37

// Input: CN1CC[C@@H](NC(=O)Nc2cccc3c2C[C@H](O)C3)c2ccc(C(F)(F)F)cc21 . Output its pIC50 only. 7.29

// Input: O=C(Nc1cccc2c1C[C@H](O)C2)N[C@@H]1CCc2cc(OC(F)(F)F)ccc21 . Output its pIC50 only. 7.25

// Input: C[C@@]1(C(F)F)C[C@@H](NC(=O)Nc2cccc3c2C[C@H](O)C3)c2ccc(Cl)cc2O1 . Output its pIC50 only. 7.44

* * *

Give measured human TRPV1 H+ (max % remain) for each item. Keep answers brief.
- STUDY SYSTEM: human TRPV1 (Homo sapiens, UniProt Q8NER1)
- Construct: expressed in transfected cells
- TEST DESCRIPTION: Acid Activation Assay (pH 5.0, FLIPR intracellular Ca2+, recombinant HEK293 cells)
- Format: cell-based
- CONDITION NOTES: percentage of maximal pH 5.0-induced response remaining; HEK293 hTRPV1; max concentration 37.5 μM

// Input: CC1(C)C[C@@H](NC(=O)Nc2cccc3c2C[C@@H](O)C3)c2cccc(C(F)(F)F)c2O1 . Output its human TRPV1 H+ (max % remain) only. 18%

// Input: O=C(Nc1cccc2c1C[C@H](O)C2)N[C@@H]1CCOc2c1cccc2C(F)(F)F . Output its human TRPV1 H+ (max % remain) only. 58%

// Input: CC1(C)C[C@@H](NC(=O)Nc2ccc(F)c3c2C[C@H](O)C3)c2ccc(C(F)(F)F)cc2O1 . Output its human TRPV1 H+ (max % remain) only. 2%

// Input: CC1(C)C[C@@H](NC(=O)Nc2ccc(F)c3c2C[C@H](O)C3)c2ccc(F)c(F)c2O1 . Output its human TRPV1 H+ (max % remain) only. 2%

* * *

Give measured human TRPV1 H+ (max % remain) for each item. Keep answers brief.
- STUDY SYSTEM: human TRPV1 (Homo sapiens, UniProt Q8NER1)
- Construct: expressed in transfected cells
- TEST DESCRIPTION: Acid Activation Assay (pH 5.0, FLIPR intracellular Ca2+, recombinant HEK293 cells)
- Type: cell-based
- CONDITION NOTES: percentage of maximal pH 5.0-induced response remaining; HEK293 hTRPV1; max concentration 37.5 μM
Only the number, expressed in %, is required.

Given CN1CC[C@@H](NC(=O)Nc2cccc3c2C[C@H](O)C3)c2ccc(C(F)(F)F)cc21 , report its human TRPV1 H+ (max % remain) on human TRPV1 (Homo sapiens, UniProt Q8NER1). 74

Given O=C(Nc1cccc2c1C[C@@H](O)C2)N[C@@H]1CC(CF)(CF)Oc2c1ccc(Cl)c2F , report its human TRPV1 H+ (max % remain) on human TRPV1 (Homo sapiens, UniProt Q8NER1). 11

Given O=C(Nc1cccc2c1C[C@H](O)C2)N[C@@H]1CC(CF)(CF)Oc2c(F)cccc21 , report its human TRPV1 H+ (max % remain) on human TRPV1 (Homo sapiens, UniProt Q8NER1). 99

Given O=C(Nc1cccc2c1CC(O)C2)NC1CC(c2ccc(Cl)cc2)Oc2ccccc21 (centres unmarked) , report its human TRPV1 H+ (max % remain) on human TRPV1 (Homo sapiens, UniProt Q8NER1). 45

Given O=C(Nc1ccc(F)c2c1C[C@@H](O)C2)N[C@@H]1CC(CF)(CF)Oc2c(F)cc(F)cc21 , report its human TRPV1 H+ (max % remain) on human TRPV1 (Homo sapiens, UniProt Q8NER1). 50

Given O=C(Nc1cccc2c1C[C@H](O)C2)N[C@H]1CC(CF)(CF)Oc2cc(Cl)ccc21 , report its human TRPV1 H+ (max % remain) on human TRPV1 (Homo sapiens, UniProt Q8NER1). 58

Given CN1CC[C@@H](NC(=O)Nc2cccc3c2C[C@@H](O)C3)c2ccc(C(F)(F)F)cc21 , report its human TRPV1 H+ (max % remain) on human TRPV1 (Homo sapiens, UniProt Q8NER1). 13

Given COc1ccc2c(c1)OC(c1ccc(Cl)cc1)CC2NC(=O)Nc1cccc2c1CC(O)C2 (centres unmarked) , report its human TRPV1 H+ (max % remain) on human TRPV1 (Homo sapiens, UniProt Q8NER1). 14

* * *

- STUDY SYSTEM: human TRPV1 (Homo sapiens)
- Construct: expressed in transfected cells
- TEST DESCRIPTION: Acid Activation Assay (pH 5.0, FLIPR intracellular Ca2+, recombinant HEK293 cells)
- Type: cell-based
- CONDITION NOTES: percentage of maximal pH 5.0-induced response remaining; HEK293 hTRPV1; max concentration 37.5 μM
- Protocol: (ii) Acid Activation Assay Dulbecco's modified Eagle's medium (DMEM) with 4.5 mg/mL D-glucose, fetal bovine serum, L-glutamine, and 2-morpholinoethanesulfonic acid (MES) were purchased from Sigma-Aldrich Co. (St. Louis, Mo.). […] The functional activity of compounds at the TRPV1 receptor was determined by measurement of intracellular Ca^2+ levels ([Ca^2+]i) using the Fluorescence Imaging Plate Reader (FLIPR)TETRA®. […]
READOUT LABEL: human TRPV1 H+ (max % remain)
Lab note: write values as number then unit, every time.

// Input: CC1(C)C[C@@H](NC(=O)Nc2cccc3c2C[C@H](O)C3)c2ccc(Cl)c(F)c2O1 . Output its human TRPV1 H+ (max % remain) only. 74%

// Input: Cc1c(F)ccc2c1OC(C)(C)C[C@H]2NC(=O)Nc1cccc2c1C[C@H](O)C2 . Output its human TRPV1 H+ (max % remain) only. 86%

// Input: O=C(Nc1cccc2c1C[C@H](O)C2)N[C@@H]1CCOc2cc(OC(F)(F)F)ccc21 . Output its human TRPV1 H+ (max % remain) only. 48%

// Input: CC(C)(C)c1ccc2c(c1)CC[C@H]2NC(=O)Nc1cccc2c1C[C@H](O)C2 . Output its human TRPV1 H+ (max % remain) only. 69%

* * *

- STUDY SYSTEM: human TRPV1 (Homo sapiens)
- Construct: expressed in transfected cells
- TEST DESCRIPTION: Capsaicin Activation Assay (FLIPR intracellular Ca2+, recombinant HEK293 cells)
- Format: cell-based
- CONDITION NOTES: recombinant HEK293 cells expressing hTRPV1; 50 nM capsaicin; read-out: human TRPV1 capsaicin IC50
Rule for this label: 1 (yes) means IC50 is less than 20 nM; 0 (no) means IC50 is at least 20 nM.

API: query returns whether the molecule falls strictly under 20 nM in IC50. Query: O=C(Nc1cccc2c1CC(O)C2)NC1CC(c2ccc(C(F)(F)F)cc2)Oc2ccccc21 (centres unmarked) 0 (no)

API: query returns whether the molecule falls strictly under 20 nM in IC50. Query: CC1(C)C[C@@H](NC(=O)Nc2ccc(F)c3c2C[C@H](O)C3)c2cccc(F)c2O1 0 (no)

API: query returns whether the molecule falls strictly under 20 nM in IC50. Query: CC1(C)C[C@@H](NC(=O)Nc2cccc3c2C[C@H](O)C3)c2ccc(C(F)(F)F)cc2O1 0 (no)

API: query returns whether the molecule falls strictly under 20 nM in IC50. Query: O=C(Nc1cccc2c1C[C@H](O)C2)N[C@@H]1CCOc2c(OC(F)(F)F)cccc21 1 (yes)

API: query returns whether the molecule falls strictly under 20 nM in IC50. Query: CC1(C)C[C@@H](NC(=O)Nc2ccc(F)c3c2C[C@@H](O)C3)c2cc(F)ccc2O1 0 (no)

API: query returns whether the molecule falls strictly under 20 nM in IC50. Query: CC1(C)C[C@@H](NC(=O)Nc2cccc3c2C[C@H](O)C3)c2cccc(F)c2O1 0 (no)
